# method_summary: chemical genetic growth profiling, strain panel (AID 1159580);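 further: tested at 20 µM; growth read once vehicle control cultures reached saturation at 30 °C; 1 = growth at the plate median or of vehicle wells; lower values mean less growth of the strain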
# condition_info: S. cerevisiae deletion strains, growth OD, locus YER110C
The whole screen tested about 5,500 compounds, of which about 2,000 (36%) were called active. Not shown: some 18% with an inconclusive outcome. No stated cut-off is given here; in the data, active means normalized growth mostly below about 0.91 (no sharp cut-off); inconclusive means no clear call, values can overlap the other calls; inactive means mostly above about 0.92. The list shows a part of the results.
Field 'call' accepts 1.0 = active, 0.0 = inactive

Task item: What outcome does the record of this test show for CC1(C)C2(Cl)C(Cl)C(Cl)C(Cl)(C(Cl)Cl)C1(Cl)C2Cl (stereo not drawn) ?
Reply: 0.0

Task item: Repeat with C=C1CCC2C(CC2(C)C)C(=O)CCC1O (stereo not drawn)
Reply: 0.0

* * *

# method_summary: chemical genetic growth profiling, strain panel (AID 1159580);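 further: tested at 20 µM; growth read once vehicle control cultures reached saturation at 30 °C; 1 = growth at the plate median or of vehicle wells; lower values mean less growth of the strain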
# condition_info: S. cerevisiae deletion strains, growth OD, locus YLR384C, strain iki3
Among all 5,500 compounds or so, about 2,000 (36%) were called active. Inconclusive results (about 18%) are left out. Cut-off read from the data, not from the text of the source: active = normalized growth mostly below about 0.91 (no sharp cut-off); inconclusive = no clear call, values can overlap the other calls; inactive = mostly above about 0.92. This is one part of the list.
Field 'call' accepts 1 for active, -1 for inactive

>>> df
                                   compound  classification
0                   CCN(CC)C(=O)c1cccc(C)c1              -1
1  Cc1c(S(=O)(=O)O)oc2c1C(=O)C(=O)c1c-2ccc2c1CCCC2(C)C              -1
2  CC(C)(C)CC(C)(C)c1ccc(O)c(Cc2ccc(Cl)cc2Cl)c1              -1
3  COC(=O)C[C@H]1C(C)(C)C(=O)[C@@H]2CC3=C(CC[C@]4(C)C3=CC(=O)O[C@H]4c3ccoc3)[C@@]1(C)C2=O              -1
4  O=C1[C@H](CCC(O)c2ccc(F)cc2)[C@@H](c2ccc(O)cc2)N1c1ccc(F)cc1 (stereo partly specified)              -1

Task item: What outcome does the record of this test show for C[C@H]1COC2=C1C(=O)C(=O)c1c2ccc2c1CCCC2(C)C ?
Reply: 1

Task item: Repeat with Cc1coc2c1C(=O)C(=O)c1c-2ccc2c1CCCC2(C)C
Reply: -1

Task item: Repeat with CC(C)NCC(O)c1cc(O)cc(O)c1 (stereo unspecified)
Reply: -1

* * *

# method_summary: chemical genetic growth profiling, strain panel (AID 1159580);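 further: tested at 20 µM; growth read once vehicle control cultures reached saturation at 30 °C; 1 = growth at the plate median or of vehicle wells; lower values mean less growth of the strain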
# condition_info: S. cerevisiae deletion strains, growth OD, locus YLR384C, strain iki3, active compounds read low
Out of some 5,500 compounds screened, about 2,000 (36%) were called active. Not shown: some 18% with an inconclusive outcome. The list shows a part of the results.
measure: normalized growth
Numbers only.

Observe how each entry below is paired with its result.
>>> df
                                   molecule  measurement
0  CN1C(C(=O)Nc2ccccn2)=C(O)c2ccccc2S1(=O)=O        0.961
1  O=C(C1CCCCC1)N1CC(=O)N2CCc3ccccc3C2C1 (stereo unspecified)         1.01
2  CC(C)NCC(O)COc1cccc2ccccc12 (stereo unspecified)         1.01
3  CCC(C)C(=O)O[C@H]1C[C@H](O)C=C2C=C[C@H](C)[C@H](CC[C@@H](O)C[C@@H](O)CC(=O)O)C21 (stereo partly specified)        0.991
4           Cc1ccc(C)c(OCCCC(C)(C)C(=O)O)c1        0.987

Could you tell me normalized growth for each of these molecules? They are listed below.
1. CC[C@H](C)C(=O)O[C@H]1CCC=C2C=C[C@H](C)C(CCC3C[C@@H](O)CC(=O)O3)[C@H]21 (stereo partly specified)
2. CC(=O)N[C@@H](CS)C(=O)O
3. O=S1OCC2C(CO1)C1(Cl)C(Cl)=C(Cl)C2(Cl)C1(Cl)Cl (stereo unspecified)
4. CC[C@H](C)C(=O)O[C@H]1C[C@@H](C)C=C2C=C[C@H](C)[C@H](CC[C@@H]3C[C@@H](O)CC(=O)O3)[C@H]21

Reply:
1: 1.01; 2: 1.01; 3: 1; 4: 1.01

Could you tell me normalized growth for each of these molecules? They are listed below.
1. Cc1cc(NC(=O)C2=C(O)c3ccccc3S(=O)(=O)N2C)no1
2. OC(Cn1cncn1)(Cn1cncn1)c1ccc(F)cc1F

Reply:
1. 0.954
2. 1
